Tested on: SK-MEL-5
Test: NCI tumour cell line growth inhibition, 48 h
Activity calls are given as the source filed them. Rule as the data show it: active = GI50 up to about 1.1 µM and inactive = higher.
Classes used: active, inactive

1) COc1cc([C@@H]2C3C(=O)c4ccccc4C3[C@@H](c3cc(OC)c(OC)c(OC)c3)C23Cc2ccccc2C3=O)cc(OC)c1OC (stereo partly drawn) : inactive
2) COC1C(O)CC(OC2CC(Oc3cc4cc5c(c(O)c4c(O)c3C)C(=O)[C@@H](OC3CC(OC4CC(OC6CC(C)(O)C(OC(C)=O)C(C)O6)C(O)C(C)O4)C(O)C(C)O3)[C@H]([C@H](OC)C(=O)[C@@H](O)[C@@H](C)O)C5)OC(C)C2OC(C)=O)OC1C (stereo partly drawn) : active
3) Cc1cccc(N2C(=O)C3c4[nH]c5ccc(C)cc5c4C4CCC(C(C)(C)C)CC4C3C2=O)c1 (stereo not drawn) : inactive
